target: PqsR (Pseudomonas aeruginosa, UniProt Q9I4X0); experiment: PqsR bioreporter assay; assay type: cell-based, Pseudomonas aeruginosa PAO1-L; details: read-out: IC50 value in PAO1-L
Sequence (Q9I4X0 whole entry): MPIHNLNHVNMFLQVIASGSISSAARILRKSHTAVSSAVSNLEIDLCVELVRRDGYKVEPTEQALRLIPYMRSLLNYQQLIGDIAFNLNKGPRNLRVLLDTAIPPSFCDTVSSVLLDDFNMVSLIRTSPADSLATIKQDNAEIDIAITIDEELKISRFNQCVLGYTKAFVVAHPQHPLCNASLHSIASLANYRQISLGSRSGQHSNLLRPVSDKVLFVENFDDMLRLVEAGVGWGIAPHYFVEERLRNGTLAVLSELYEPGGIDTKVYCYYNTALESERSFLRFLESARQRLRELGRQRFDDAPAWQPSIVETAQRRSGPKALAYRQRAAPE
Parameter activity: see the listing below.

Below, each entry is followed by its recorded activity result.
{"MOLECULE": "CC(C)c1ncc(Cn2cnc3ccc(Cl)cc3c2=O)s1 [Compound 35]", "activity": "> 50%"}
{"MOLECULE": "O=c1c2cc(Cl)ccc2ncn1Cc1cnc(NC2CCCCC2)s1 [Compound 28]", "activity": "> 50%"}
{"MOLECULE": "CC1CCN(c2ncc(Cn3cnc4ccc(Cl)cc4c3=O)s2)CC1 [Compound 27]", "activity": "> 50%"}

Req: Lab note: need activity for CCCCCc1nc(Cn2cnc3cc(Cl)ccc3c2=O)cs1 [Compound 33] on PqsR (Pseudomonas aeruginosa, UniProt Q9I4X0), anyone have it?
Resp: > 50%

Req: Next record, please: CN(CCO)c1ncc(Cn2cnc3ccc(Cl)cc3c2=O)s1 [Compound 29]
Resp: > 50%

Req: Next record, please: COCCNc1nc(Cn2cnc3ccc(Cl)cc3c2=O)cs1 [Compound 24]
Resp: > 50%

Req: Next record, please: Cc1nc(Cn2cnc3ccc(Cl)cc3c2=O)cs1 [Compound 8]
Resp: > 50%

Req: Next record, please: CCCCNc1ncc(Cn2cnc3ccc(Cl)cc3c2=O)s1 [Compound 30]
Resp: > 50%
